# TGT: LRRK2 G2019S (Homo sapiens, UniProt Q5S007, G2019S)
# Sequence (Q5S007 whole entry G2019S): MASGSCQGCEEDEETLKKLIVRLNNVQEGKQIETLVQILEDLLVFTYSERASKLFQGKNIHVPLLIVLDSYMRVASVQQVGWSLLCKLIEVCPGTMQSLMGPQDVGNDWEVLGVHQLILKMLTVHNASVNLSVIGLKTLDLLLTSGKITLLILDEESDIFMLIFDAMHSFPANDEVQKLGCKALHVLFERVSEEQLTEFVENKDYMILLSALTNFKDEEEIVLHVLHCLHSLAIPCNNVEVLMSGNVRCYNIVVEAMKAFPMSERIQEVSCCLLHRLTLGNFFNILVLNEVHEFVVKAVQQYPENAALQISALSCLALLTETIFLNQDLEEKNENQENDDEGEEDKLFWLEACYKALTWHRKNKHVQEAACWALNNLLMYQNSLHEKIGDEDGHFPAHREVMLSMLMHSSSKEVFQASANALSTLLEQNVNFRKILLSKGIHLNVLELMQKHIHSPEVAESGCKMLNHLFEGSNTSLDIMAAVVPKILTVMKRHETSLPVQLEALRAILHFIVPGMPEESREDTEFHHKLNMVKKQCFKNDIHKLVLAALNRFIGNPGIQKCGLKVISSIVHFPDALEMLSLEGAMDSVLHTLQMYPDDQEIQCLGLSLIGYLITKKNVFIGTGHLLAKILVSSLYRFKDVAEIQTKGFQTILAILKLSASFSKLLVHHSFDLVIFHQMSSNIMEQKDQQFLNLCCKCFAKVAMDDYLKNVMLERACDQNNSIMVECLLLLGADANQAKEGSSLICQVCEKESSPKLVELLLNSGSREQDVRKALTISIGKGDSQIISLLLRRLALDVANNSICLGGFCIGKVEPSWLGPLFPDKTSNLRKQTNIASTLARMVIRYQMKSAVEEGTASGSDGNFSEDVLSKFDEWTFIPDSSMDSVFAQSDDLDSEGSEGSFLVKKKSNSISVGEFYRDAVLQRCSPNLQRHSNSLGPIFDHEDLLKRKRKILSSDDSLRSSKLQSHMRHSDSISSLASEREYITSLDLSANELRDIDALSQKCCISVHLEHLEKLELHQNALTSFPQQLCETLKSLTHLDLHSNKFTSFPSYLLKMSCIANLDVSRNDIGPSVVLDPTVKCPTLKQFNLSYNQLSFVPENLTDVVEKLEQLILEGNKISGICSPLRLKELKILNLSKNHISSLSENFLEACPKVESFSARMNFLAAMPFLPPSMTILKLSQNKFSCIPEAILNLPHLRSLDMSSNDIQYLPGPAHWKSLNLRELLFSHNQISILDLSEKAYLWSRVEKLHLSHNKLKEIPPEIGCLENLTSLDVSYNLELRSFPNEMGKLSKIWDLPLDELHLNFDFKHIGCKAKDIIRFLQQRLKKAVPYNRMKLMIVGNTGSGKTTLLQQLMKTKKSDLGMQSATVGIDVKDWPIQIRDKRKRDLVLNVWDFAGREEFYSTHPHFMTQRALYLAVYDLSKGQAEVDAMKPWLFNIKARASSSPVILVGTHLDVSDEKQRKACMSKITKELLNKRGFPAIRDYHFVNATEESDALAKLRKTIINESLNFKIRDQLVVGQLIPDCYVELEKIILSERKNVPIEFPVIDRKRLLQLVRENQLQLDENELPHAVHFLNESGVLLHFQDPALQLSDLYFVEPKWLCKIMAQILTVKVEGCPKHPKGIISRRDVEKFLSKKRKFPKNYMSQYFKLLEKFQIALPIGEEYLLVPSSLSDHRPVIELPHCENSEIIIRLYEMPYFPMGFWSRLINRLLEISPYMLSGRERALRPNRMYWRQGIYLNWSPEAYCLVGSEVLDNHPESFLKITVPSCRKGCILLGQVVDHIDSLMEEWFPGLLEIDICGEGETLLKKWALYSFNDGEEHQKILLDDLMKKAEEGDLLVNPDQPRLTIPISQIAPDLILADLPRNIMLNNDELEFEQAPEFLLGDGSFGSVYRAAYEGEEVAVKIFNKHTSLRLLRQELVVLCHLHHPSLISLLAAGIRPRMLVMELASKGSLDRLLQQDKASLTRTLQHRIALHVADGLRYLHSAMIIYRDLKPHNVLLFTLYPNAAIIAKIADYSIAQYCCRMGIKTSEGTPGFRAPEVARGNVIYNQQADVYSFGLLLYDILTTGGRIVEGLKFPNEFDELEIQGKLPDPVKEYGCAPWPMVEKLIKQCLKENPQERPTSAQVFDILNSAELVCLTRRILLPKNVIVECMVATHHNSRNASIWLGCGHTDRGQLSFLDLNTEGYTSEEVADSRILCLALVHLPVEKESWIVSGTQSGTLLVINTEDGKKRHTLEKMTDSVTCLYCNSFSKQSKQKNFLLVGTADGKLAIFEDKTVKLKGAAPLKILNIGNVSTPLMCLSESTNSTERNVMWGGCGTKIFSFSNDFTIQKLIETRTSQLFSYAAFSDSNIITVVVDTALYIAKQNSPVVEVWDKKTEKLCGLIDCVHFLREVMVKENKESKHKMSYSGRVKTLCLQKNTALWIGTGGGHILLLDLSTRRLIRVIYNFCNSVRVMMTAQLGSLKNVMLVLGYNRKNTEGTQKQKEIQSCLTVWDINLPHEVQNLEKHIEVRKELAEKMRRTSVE
# TEST_DESCRIPTION: LRRK2 G2019S Km ATP LanthaScreen assay
# Assay type: biochemical
# TEST_SETTINGS: read-out: LRRK2 pIC50 (converted)
# From the text: Unless otherwise noted, all reactions are magnetically stirred. Unless otherwise noted, when diethyl ether is used in the experiments described below, it is Fisher ACS certified material and is stabilized with BHT. Unless otherwise noted, “concentrated” and/or “solvent removed under reduced pressure” means evaporating the solvent from a solution or mixture using a rotary evaporator or vacuum pump. […]
Listed here are compounds together with their documented IC50.
Number in nM, nothing else.

Known results for compounds:
COMPOUND	IC50 / nM
O=C(Nc1cc2cc(C3CCN(C4COC4)CC3)c(Cl)cc2cn1)C1CC1	2.14
Cn1ncc(C2CC2C(=O)Nc2cc3cc(C4(C#N)CC45CC5)ccc3cn2)c1C(F)(F)F (centres unmarked) [Ex-2.48]	324
CC1CC1(C#N)c1ccc2cnc(NC(=O)C3CC3)cc2c1 (single isomer, unassigned) [Ex-18.8]	5.37
CC1(N2CCC(c3cc4cc(NC(=O)C5CC56CCOC6)ncc4cc3Cl)CC2)COCC1F (single isomer, unassigned) [Ex-6.7]	1.82
CC1(N2CCC(c3cc4cc(NC(=O)C5CC56CCOCC6)ncc4cc3Cl)CC2)CCOCC1F (single isomer, unassigned) [Ex-12.1]	41.7
CC1(N2CCC(c3cc4cc(NC(=O)C5C6CCOCC65)ncc4cc3Cl)CC2)COCC1F (single isomer, unassigned) [Ex-6.42]	0.38

Form field IC50, entry CC1(N2CCC(c3cc4cc(NC(=O)Cn5ccc(C(F)(F)F)n5)ncc4cc3Cl)CC2)COCC1O (centres unmarked) : 1

Form field IC50, entry N#CC1(c2ccc3cnc(NC(=O)C4CC4)cc3c2)CC1 : 19.1

Form field IC50, entry CCC1C(C(=O)Nc2cc3cc(C4CCN(C5(C)COCC5F)CC4)c(Cl)cc3cn2)C1c1cnn(C)c1 (single isomer, unassigned) : 0.0813

Form field IC50, entry CC1(N2CCC(c3cc4cc(NC(=O)C5C6COCC65)ncc4cc3Cl)CC2)CCOC1 (single isomer, unassigned) [Ex-6.11] : 1.95

Form field IC50, entry CC1(N2CCC(c3cc4cc(NC(=O)C5CC5c5ccccn5)ncc4cc3Cl)CC2)CCOC1 (single isomer, unassigned) [Ex-6.33] : 87.1

Form field IC50, entry CC1(C)CC1C(=O)Nc1cc2cc(C3CCN(C4(C)COCC4O)CC3)c(Cl)cc2cn1 (centres unmarked) [Ex-2.12] : 0.355

Form field IC50, entry O=C(Nc1cc2cc(C3CCN(C4COCC4O)CC3)c(Cl)cc2cn1)C1CC12CCOCC2 (single isomer, unassigned) [Ex-4.4] : 117

Form field IC50, entry CC(C)(O)C1CC1C(=O)Nc1cc2cc(C3CCN(C4(C)CCOC4)CC3)c(Cl)cc2cn1 (single isomer, unassigned) [Ex-6.14] : 2.69

----------
# TGT: LRRK2 G2019S (Homo sapiens, UniProt Q5S007, G2019S)
# TEST_DESCRIPTION: LRRK2 G2019S Km ATP LanthaScreen assay
# Format: biochemical
# TEST_SETTINGS: read-out: LRRK2 pIC50 (converted)
Listed here are compounds together with their documented IC50.
Number in nM, nothing else.

Known results for compounds:
COMPOUND	MEASUREMENT_UNIT	IC50
CC1C(C(=O)Nc2cc3cc(C4CCN(C5(C)COCC5O)CC4)c(Cl)cc3cn2)C12CCOCC2 (single isomer, unassigned) [Ex-10.5]	nM	61.7
CC(C(=O)Nc1cc2cc(C3CCN(C4(C)CCOC4O)CC3)c(Cl)cc2cn1)C1CCOCC1 (stereo not shown) [Ex-2.104]	nM	0.661
CCC1C(C(=O)Nc2cc3cc(C4CCC(N5CC(F)C5)CC4)c(Cl)cc3cn2)C1c1cnn(C)c1 (single isomer, unassigned) [Ex-11.7]	nM	0.282

Lab note: next compound to report on.
Form field IC50, entry CC1(N2CCC(c3cc4cc(NC(=O)Cc5cnn(C(F)F)c5)ncc4cc3Cl)CC2)COCC1O (stereo not shown) [Ex-3.11] : 0.631

----------
# TGT: LRRK2 G2019S (Homo sapiens, UniProt Q5S007, G2019S)
# TEST_DESCRIPTION: LRRK2 G2019S Km ATP LanthaScreen assay
# Format: biochemical
# TEST_SETTINGS: read-out: LRRK2 pIC50 (converted)
Returns: string. Value is met if measured IC50 is below 1 nM, and not met if it is greater than or equal to it.

Is IC50 of CCOC1CC2(C1)CC2C(=O)Nc1cc2cc(C3CCN(C4(C)COCC4F)CC3)c(Cl)cc2cn1 (stereo not shown) strictly below 1 nM?
met

Is IC50 of N#CC1(c2ccc3cnc(NC(=O)C4CC4c4ccncc4)cc3c2)CC12CC2 (stereo not shown) [Ex-2.41] strictly below 1 nM?
not met

Is IC50 of CCC1C(C(=O)Nc2cc3cc(C(C)COC)c(Cl)cc3cn2)C1c1cnn(C)c1 (single isomer, unassigned) [Ex-9.13] strictly below 1 nM?
not met

Is IC50 of CC1(N2CCC(c3cc4cc(NC(=O)c5cnn(C6CC6)c5)ncc4cc3Cl)CC2)COCC1O (single isomer, unassigned) strictly below 1 nM?
not met

Is IC50 of CCC1C(C(=O)Nc2cc3cc(C4CCN(C5(C)COCC5O)CC4)c(Cl)cc3cn2)C1c1ccccn1 (single isomer, unassigned) [Ex-4.55] strictly below 1 nM?
not met

Is IC50 of CC1(N2CCC(c3cc4cc(NC(=O)C5CC56CCOCC6)ncc4cc3Cl)C(F)C2)COCC1O (single isomer, unassigned) [Ex-14.4] strictly below 1 nM?
met

Is IC50 of CC1(N2CCC(c3cc4cc(NC(=O)C5CC5c5ccncc5)ncc4cc3Cl)CC2)COCC1O (single isomer, unassigned) [Ex-4.22] strictly below 1 nM?
not met

Is IC50 of CC1(N2CCC(c3cc4cc(NC(=O)C5CC5C5CCCCO5)ncc4cc3Cl)CC2)COCC1O (single isomer, unassigned) strictly below 1 nM?
met

Is IC50 of Cc1cc2cnc(NC(=O)C3CC34CCOC4)cc2cc1C1CCN(C2(C)COCC2F)CC1 (single isomer, unassigned) [Ex-15.7] strictly below 1 nM?
not met

Is IC50 of Cc1cc2cnc(NC(=O)C3CC3c3ccccn3)cc2cc1C1CCN(C2(C)COCC2O)CC1 (single isomer, unassigned) [Ex-4.77] strictly below 1 nM?
not met

----------
# TGT: LRRK2 G2019S (Homo sapiens, UniProt Q5S007, G2019S)
# TEST_DESCRIPTION: LRRK2 G2019S Km ATP LanthaScreen assay
# Format: biochemical
# TEST_SETTINGS: read-out: LRRK2 pIC50 (converted)
MEASURED_PROPERTY: IC50 (nM)
Number in nM, nothing else.

Known results for compounds:
COMPOUND	TGT	MEASURED
CC(C)(O)C1CC1C(=O)Nc1cc2cc(C3CCN(C4(C)COCC4O)CC3)c(Cl)cc2cn1 (stereo not shown) [Ex-2.20]	LRRK2 G2019S (Homo sapiens, UniProt Q5S007, G2019S)	11.5
CCC1C(C(=O)Nc2cc3cc(C4CCN(C5(C)COCC5F)CC4)c(Cl)cc3cn2)C1c1ccn(C)n1 (stereo not shown)	LRRK2 G2019S (Homo sapiens, UniProt Q5S007, G2019S)	0.0813
CC1(N2CCC(c3cc4cc(NC(=O)C5C6COCC65)ncc4cc3Cl)CC2)CCOC1 (single isomer, unassigned) [Ex-6.12]	LRRK2 G2019S (Homo sapiens, UniProt Q5S007, G2019S)	8.13

Param item: CC1(N2CCC(c3cc4cc(NC(=O)C5CC5c5cncnc5)ncc4cc3Cl)CC2)COCC1O (single isomer, unassigned) [Ex-4.35] ; param system: LRRK2 G2019S (Homo sapiens, UniProt Q5S007, G2019S); output IC50: 0.692

----------
Listed here are molecules together with their documented IC50.
# TGT: LRRK2 G2019S (Homo sapiens, UniProt Q5S007, G2019S)
# TEST_DESCRIPTION: LRRK2 G2019S Km ATP LanthaScreen assay
# Assay type: biochemical
# TEST_SETTINGS: read-out: LRRK2 pIC50 (converted)
Number in µM, nothing else.

Known results for molecules:
MOLECULE	MEASUREMENT_UNIT	IC50
O=C(Nc1cc2cc(C3CCN(C4COC4)CC3)c(Cl)cc2cn1)C1CCC1 [Ex-7.4]	µM	0.00589
CC1(C)CC(C(=O)Nc2cc3cc(C4CCN(C5(C)CCOC5)CC4)c(Cl)cc3cn2)CCO1 (single isomer, unassigned) [Ex-6.47]	µM	0.000724
CC1(N2CCC(c3cc4cc(NC(=O)C5CC56CCOC6)ncc4cc3Cl)CC2)COCC1F (single isomer, unassigned) [Ex-6.1]	µM	0.0427
Cn1cc(C2CC2C(=O)Nc2cc3cc(C4CCN(C5(C)COCC5F)CC4)c(Cl)cc3cn2)cn1 (single isomer, unassigned) [Ex-6.30]	µM	0.00145
Cn1ncc(C2CC2C(=O)Nc2cc3cc(C4(C#N)CC45CC5)ccc3cn2)c1C(F)(F)F (centres unmarked) [Ex-2.47]	µM	0.457
CC1(N2CCC(c3cc4cc(NC(=O)[C@H]5CCCO5)ncc4cc3Cl)CC2)COCC1O (some centres unmarked) [Ex-3.2]	µM	0.00115

Form field IC50, entry O=C(Nc1cc2cc(C3C4CCOCC43)c(Cl)cc2cn1)C1CC12CCOCC2 (single isomer, unassigned) [Ex-9.23] : 0.0191

Form field IC50, entry CC1CC1C(=O)Nc1cc2cc(C3CCN(C4COC4)CC3)c(Cl)cc2cn1 (single isomer, unassigned) [Ex-9.5] : 0.0011

Form field IC50, entry CC1(N2CCC(c3cc4cc(NC(=O)C5CC5c5cccs5)ncc4cc3Cl)CC2)COCC1O (single isomer, unassigned) [Ex-4.59] : 0.129

Form field IC50, entry CC1(C)CC(C(=O)Nc2cc3cc(C4CCN(C5(C)COCC5F)CC4)c(Cl)cc3cn2)CCO1 (single isomer, unassigned) [Ex-6.39] : 0.0891

Form field IC50, entry CC1(C)CC(C(=O)Nc2cc3cc(C4CCC(N5CCC(F)C5)CC4)c(Cl)cc3cn2)CCO1 (single isomer, unassigned) [Ex-5.11] : 0.0708

Form field IC50, entry O=C(Nc1cc2cc(C3CCN(C4COC4)CC3)c(Cl)cc2cn1)[C@H]1C[C@H]1F [Ex-1.13] : 0.00245

Form field IC50, entry CC(C)Cn1nccc1C1CC1C(=O)Nc1cc2cc(C3CCN(C4(C)COCC4O)CC3)c(Cl)cc2cn1 (single isomer, unassigned) [Ex-4.62] : 81300

Form field IC50, entry Cc1cc2cnc(NC(=O)C3CC3c3ccccn3)cc2cc1C1CCN(C2(C)COCC2F)CC1 (single isomer, unassigned) [Ex-13.4] : 0.0219
